- Tested on: Escherichia coli TOP10;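 note: peptides expressed intracellularly from a pBAD plasmid library in pooled LB shake-flask culture, induced with 0.3% L-arabinose, DNA abundance read by NGS, three biological replicates, DESeq2 with apeglm shrinkage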
- Experiment Notes: shrunken log2 fold change of peptide-encoding DNA abundance (4.5 h post-induction vs induction); higher = less antimicrobial activity (less host growth inhibition)
- Applied Conditions: time post-induction: 4.5 h; library: site-saturation at positions 5, 18, 19, 20
Quantity Name: shrunken log2 fold change
Write the value as a bare number.

macromolecule_sequence=RRIRYRPPRLPRPRPRPCWRPRP test_value=-0.138

Per the records, this sequence ( `RRIRWRPPRLPRPRPRPRQHPRP` ) has shrunken log2 fold change equal to 0.251

Per the records, this sequence ( `RRIRYRPPRLPRPRPRPDCAPRP` ) has shrunken log2 fold change equal to -0.218

Per the records, this sequence ( `RRIRGRPPRLPRPRPRPPFVPRP` ) has shrunken log2 fold change equal to 0.803

Per the records, this sequence ( `RRIRARPPRLPRPRPRPPEIPRP` ) has shrunken log2 fold change equal to 0.301

Per the records, this sequence ( `RRIRMRPPRLPRPRPRPHNLPRP` ) has shrunken log2 fold change equal to -0.0351

Per the records, this sequence ( `RRIRGRPPRLPRPRPRPPFEPRP` ) has shrunken log2 fold change equal to 0.691

Per the records, this sequence ( `RRIRARPPRLPRPRPRPSSSPRP` ) has shrunken log2 fold change equal to 0.185

Per the records, this sequence ( `RRIRQRPPRLPRPRPRPKRAPRP` ) has shrunken log2 fold change equal to 0.0973

Per the records, this sequence ( `RRIRLRPPRLPRPRPRPIWNPRP` ) has shrunken log2 fold change equal to 0.0155

Per the records, this sequence ( `RRIRERPPRLPRPRPRPIPTPRP` ) has shrunken log2 fold change equal to 0.0239

Per the records, this sequence ( `RRIRDRPPRLPRPRPRPNAAPRP` ) has shrunken log2 fold change equal to 0.0798

The measured values listed here are drawn from the supplement of paper PMC9112550.
